- System: MGC-803 gastric cancer cell line
- ASSAY SUMMARY: CCK-8 proliferation inhibition
- Assay type: cell-based
- CONDITION DETAILS: Homo sapiens, MGC-803, 72 h, concentration of 30 μM
Record satisfied whenever inhibition at 30 µM is at 30% or higher; record not satisfied when lower.

Example entries and their recorded answers appear below.
[[record]]
compound = "CCCC[C@H](CC(=O)NO)C(=O)N1CC2(CC2)C[C@H]1C(=O)Nc1ccc(F)cn1"
label_class = "satisfied"

[[record]]
compound = "O=C(C[C@@H](CC1CCCC1)C(=O)N1CC2(CC2)C[C@@H]1c1nc2ccccc2[nH]1)NO"
label_class = "satisfied"


[ask] Item `O=C(C[C@@H](CC1CCCC1)C(=O)N1CC2(CC2)C[C@H]1C(=O)Nc1ncccc1F)NO` with inhibition at 30 µM of 30% or above?
[reply] satisfied

[ask] Identify whether the reported inhibition at 30 µM of the following compound is 30% or greater: `CCCC[C@H](CC(=O)NO)C(=O)N1CC2(CCCC2)C[C@H]1C(=O)Nc1ccc(F)cn1`
[reply] satisfied

[ask] Is it the case that `CCCC[C@H](CN(O)C=O)C(=O)N1CC2(CC2)C[C@H]1C(=O)Nc1nccs1` has inhibition at 30 µM reaching or exceeding 30%?
[reply] not satisfied

[ask] Is reported inhibition at 30 µM greater than or equal to 30% here: `CCCC[C@H](CC(=O)NO)C(=O)N1CC2(CC2)C[C@H]1C(=O)Nc1nc(C(F)(F)F)cs1`
[reply] satisfied

[ask] State whether the measured inhibition at 30 µM reaches 30%, counting equality as reaching it, for `CCCC[C@H](CN(O)C=O)C(=O)N1CC2(CC2)C[C@H]1C(=O)Nc1ncc(C)s1`
[reply] satisfied

[ask] inhibition at 30 µM >= 30% for `O=C(C[C@@H](CC1CCCC1)C(=O)N1CC2(CC2)C[C@H]1C(=O)Nc1ccc(F)cn1)NO` ?
[reply] satisfied

[ask] Record `O=C(C[C@@H](CC1CCCC1)C(=O)N1CC2(CC2)C[C@H]1C(=O)Nc1cnccn1)NO` ; criterion: inhibition at 30 µM no lower than 30%. Met?
[reply] satisfied

[ask] Threshold query (inhibition at 30 µM >= 30%) on `O=C(C[C@@H](CC1CCCC1)C(=O)N1CC2(CC2)C[C@H]1C(=O)Nc1cccnn1)NO`
[reply] satisfied

[ask] Please indicate if the recorded inhibition at 30 µM for `O=C(C[C@@H](CC1CCCC1)C(=O)N1CC2(CC2)C[C@H]1C(=O)Nc1ccncn1)NO` meets or exceeds 30%.
[reply] satisfied

[ask] Exam item: decide whether the reported inhibition at 30 µM for `CCCC[C@H](CC(=O)NO)C(=O)N1CC2(CC2)C[C@H]1C(=O)Nc1nc(C)cs1` is at least 30%.
[reply] satisfied

[ask] Please indicate if the recorded inhibition at 30 µM for `CCCC[C@H](CC(=O)NO)C(=O)N1CC2(CC2)C[C@H]1C(=O)Nc1cc(C(C)(C)C)on1` meets or exceeds 30%.
[reply] satisfied

[ask] Kindly determine if inhibition at 30 µM recorded for `CCCC[C@H](CC(=O)NO)C(=O)N1CC2(CCCC2)C[C@H]1C(=O)Nc1cnccn1` is above or exactly 30%.
[reply] not satisfied

----------
- Test system: Moraxella catarrhalis (BCA)
- ASSAY SUMMARY: MIC, two-fold agar dilution (CLSI), clinical isolates
- Format: cell-based
- CONDITION DETAILS: clinical isolate BCA 14-8
- Text: 1. The invention adopts the two-fold agar dilution method recommended by the operating procedure of antimicrobial susceptibility testing set by American Clinical and Laboratory Standards Institute (CLSI) to determine the Minimum Inhibitory Concentration (MIC) of the test samples against the tested strains.
Please respond with reported Anti-bacterial activity (MIC), strain BCA 14-8 for every item in the list.

[[record]]
query_smiles = "CCCC[C@H](CC(=O)NO)C(=O)N1CC2(CC2)C[C@H]1C(=O)Nc1ccc(F)cn1"
assayed_system = "Moraxella catarrhalis (BCA)"
result = "1 µg/mL"


State recorded Anti-bacterial activity (MIC), strain BCA 14-8 for all listed compounds.
1. O=C(C[C@@H](CC1CCCC1)C(=O)N1CC2(CC2)C[C@H]1C(=O)Nc1ccc(F)cn1)NO
2. CCCC[C@H](CC(=O)NO)C(=O)N1CC2(CC2)C[C@H]1C(=O)Nc1nc(C)cs1
3. CCCC[C@H](CC(=O)NO)C(=O)N1CC2(CC2)C[C@H]1C(=O)Nc1nc(C(F)(F)F)cs1
4. CCCC[C@H](CC(=O)NO)C(=O)N1CC2(CC2)C[C@@H]1c1nc2ccccc2[nH]1
5. CCCC[C@H](CC(=O)NO)C(=O)N1CC2(CC2)C[C@H]1C(=O)Nc1cnn(CCN(C)C)c1
6. CCCC[C@H](CC(=O)NO)C(=O)N1CC2(CC2)C[C@H]1C(=O)Nc1cc(C(C)(C)C)on1
7. O=C(C[C@@H](CC1CCCC1)C(=O)N1CC2(CC2)C[C@H]1C(=O)Nc1ccncn1)NO

[reply]
1. 0.125 µg/mL
2. 1 µg/mL
3. 0.25 µg/mL
4. > 32 µg/mL
5. > 32 µg/mL
6. 4 µg/mL
7. 0.5 µg/mL

Each of the following entries comes with a recorded value; kindly state Anti-bacterial activity (MIC), strain BCA 14-8 for each.
1. Cc1cnc(NC(=O)[C@@H]2CC3(CC3)CN2C(=O)[C@@H](CC(=O)NO)CC2CCCC2)s1
2. CCCC[C@H](CC(=O)NO)C(=O)N1CC2(CC2)C[C@H]1C(=O)Nc1ccc(N2CCOCC2)cc1

[reply]
1. 0.5 µg/mL
2. 2 µg/mL

----------
I'd appreciate it if you could supply MIC (anti-bacterial activity) values for the items below.
- Test system: Streptococcus pneoumoniae (SPN)
- ASSAY SUMMARY: MIC, two-fold agar dilution (CLSI), clinical isolates
- Assay type: cell-based
- CONDITION DETAILS: strain SPN 16-2
Numbers only, in µg/mL.

Solved entries (count: 3):
[[record]]
compound = "CCCC[C@H](CN(O)C=O)C(=O)N1CC2(CC2)C[C@H]1C(=O)Nc1cnccn1 [Example 15]"
measured_property = "MIC (anti-bacterial activity)"
numeric_readout = 0.015

[[record]]
compound = "CC(C)(C)c1cc(NC(=O)[C@@H]2CC3(CC3)CN2C(=O)[C@H](CC2CCCC2)CN(O)C=O)no1 [Example 38]"
measured_property = "MIC (anti-bacterial activity)"
numeric_readout = 0.25

[[record]]
compound = "O=CN(O)C[C@@H](CC1CCCC1)C(=O)N1CC2(CC2)C[C@H]1C(=O)NC1CC1 [Example 32]"
measured_property = "MIC (anti-bacterial activity)"
numeric_readout = 1


Could I get MIC (anti-bacterial activity) for every one of these entries?
1. CCCC[C@H](CN(O)C=O)C(=O)N1CC2(CC2)C[C@H]1C(=O)Nc1ccncn1 [Example 16]
2. O=CN(O)C[C@@H](CC1CCCC1)C(=O)N1CC2(CC2)C[C@H]1C(=O)Nc1ncccc1F [Example 30]
3. O=CN(O)C[C@@H](CC1CCCC1)C(=O)N1CC2(CC2)C[C@H]1C(=O)Nc1cnccn1 [Example 26]
4. O=CN(O)C[C@@H](CC1CCCC1)C(=O)N1CC2(CC2)C[C@H]1C(=O)Nc1ccc(N2CCOCC2)cc1 [Example 25]
5. CCCC[C@H](CN(O)C=O)C(=O)N1CC2(CC2)C[C@H]1C(=O)Nc1ccno1 [Example 17]

[reply]
[4, 4, 0.25, 0.5, 8]

----------
- Tested on: Moraxella catarrhalis (BCA)
- ASSAY SUMMARY: MIC, two-fold agar dilution (CLSI), clinical isolates
- Format: cell-based
- CONDITION DETAILS: strain BCA 14-5
Task for the reader: assign each of the following molecules its reported MIC (anti-bacterial activity).

Worked examples, 4 molecules total:
[[record]]
query_smiles = "CCCC[C@H](CN(O)C=O)C(=O)N1CC2(CC2)C[C@H]1C(=O)Nc1cc(C)on1"
result = "0.5 µg/mL"

[[record]]
query_smiles = "O=CN(O)C[C@@H](CC1CCCC1)C(=O)N1CC2(CC2)C[C@H]1C(=O)Nc1ccncn1"
result = "0.25 µg/mL"

[[record]]
query_smiles = "Cc1csc(NC(=O)[C@@H]2CC3(CC3)CN2C(=O)[C@H](CC2CCCC2)CN(O)C=O)n1"
result = "0.06 µg/mL"

[[record]]
query_smiles = "CCCC[C@H](CN(O)C=O)C(=O)N1CC2(CC2)C[C@H]1C(=O)Nc1nncs1"
result = "1 µg/mL"


For each listed entry, give its MIC (anti-bacterial activity).
1. CCCC[C@H](CN(O)C=O)C(=O)N1CC2(CC2)C[C@H]1C(=O)Nc1nccs1
2. O=CN(O)C[C@@H](CC1CCCC1)C(=O)N1CC2(CC2)C[C@H]1C(=O)Nc1ncccc1F
3. O=CN(O)C[C@@H](CC1CCCC1)C(=O)N1CC2(CC2)C[C@H]1C(=O)Nc1ccc(N2CCOCC2)cc1
4. O=CN(O)C[C@@H](CC1CCCC1)C(=O)N1CC2(CC2)C[C@H]1C(=O)Nc1cc[nH]n1
5. CCCC[C@H](CN(O)C=O)C(=O)N1CC2(CC2)C[C@H]1C(=O)Nc1ccc(N2CCOCC2)cc1

[reply]
1: 0.06 µg/mL; 2: 1 µg/mL; 3: 0.5 µg/mL; 4: 2 µg/mL; 5: 2 µg/mL

Entry source: patent US10738028B2
